Data origin, for the record: PubChem BioAssay AID1159580

Recorded normalized growth values for a group of molecules are listed next.
# Assay remarks: chemical genetic growth profiling, strain panel (AID 1159580);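 also: tested at 20 µM; growth read once vehicle control cultures reached saturation at 30 °C; 1 = growth at the plate median or of vehicle wells; lower values mean less growth of the strain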
# Measurement setup: S. cerevisiae deletion strains, growth OD, strain TSCII, active compounds read low
The whole screen tested about 5,500 compounds, of which about 2,000 (36%) were called active. Not shown: some 18% with an inconclusive outcome. The list shows a part of the results.
Just the number, please, no unit after it.

Molecule: Cc1ccc(-c2csc(-c3ccncc3)n2)cc1
Experimental value: 0.873
--
Molecule: O=C(NOC(=O)c1ccccc1)c1ccccc1
Experimental value: 0.0892
--
Molecule: Cc1onc(-c2c(Cl)cccc2Cl)c1C(=O)O/N=C(/N)Cc1ccc(C(C)(C)C)cc1
Experimental value: 0.99

**Q:** Sample CC(C)(C)c1cc(C(=O)Nc2ccc3c(c2)OCO3)n(Cc2ccc(F)cc2)n1 — what was its normalized growth?
**A:** 0.986

**Q:** Data request, read-out normalized growth, for CCOC(=O)/C(C#N)=C(\Nc1ccc(C(=O)OCC)cc1)SC
**A:** 0.984

**Q:** For the molecule shown here, Cc1cc(/C(N)=N\OC(=O)C(C)(C)C)cc(/C(N)=N\OC(=O)C(C)(C)C)c1 , give the reported normalized growth.
**A:** 0.967

**Q:** What measured normalized growth goes with C#CCSC1=NNC(c2ccccn2)S1 (stereo not drawn) ?
**A:** 0.541

**Q:** # lookup: normalized growth of O=C(Nc1cccc(Cl)c1)O/N=C1\CCCc2occc21
**A:** 0.927

**Q:** What value of normalized growth has been recorded for this entry: CC(C)(C)c1cc(C(=O)NNc2cccc(Cl)c2)n(Cc2ccccc2)n1
**A:** 0.966

**Q:** If you can, please state the reported normalized growth value of O=[N+]([O-])c1cccc(C2CC(c3ccccc3)=Nc3ccccc3S2)c1 (stereo not drawn) .
**A:** 0.946

**Q:** Fill in: normalized growth of O=C1c2cccc3c(Sc4ccccc4)ccc(c23)C(=O)N1NCCO is ___
**A:** 0.917

**Q:** What value of normalized growth has been recorded for this entry: COC(=O)c1sccc1NS(=O)(=O)c1cc(Cl)cc(Cl)c1
**A:** 0.952

**Q:** Which normalized growth is listed for O=C(Nc1ccc(F)cc1F)c1cc(Cl)c(-n2cccc2)c(Cl)c1 ?
**A:** 0.968

###

Attribute: normalized growth
# Assay remarks: chemical genetic growth profiling, strain panel (AID 1159580)
# Measurement setup: S. cerevisiae deletion strains, growth OD, locus YDR150W, strain NUM1, active compounds read low
In all, about 5,500 compounds went through this assay and about 2,000 (36%) were called active. Roughly 18% stayed inconclusive and do not appear here. Some of the results follow.
I'd appreciate a reply containing only the number, no unit.

Compound: CC(=O)O[C@H]1CC[C@@]2(C)C(C[C@@H](OC(C)=O)[C@@]3(C)C4=CC(=O)O[C@@H](c5ccoc5)[C@]4(C)CCC23)C1(C)C (stereo not given in full)
Recorded endpoint: normalized growth
Experimental value: 1.01

Compound: CN(C)[C@@H]1C(=O)C(C(N)=O)=C(O)[C@@]2(O)C(=O)C3=C(O)c4c(O)ccc(Cl)c4[C@@](C)(O)[C@H]3C[C@@H]12
Recorded endpoint: normalized growth
Experimental value: 1

Compound: CC(N)(C(=O)O)c1ccc(C(=O)O)cc1 (stereo not given)
Recorded endpoint: normalized growth
Experimental value: 0.998

Compound: CC(C)=CC1C(C(=O)O)C1(C)C (stereo not given)
Recorded endpoint: normalized growth
Experimental value: 0.983

**Q:** Consider the compound CCOC(CN(c1ccc(F)cc1)S(=O)(=O)c1ccc(F)cc1F)OCC and give its measured normalized growth.
**A:** 0.957

###

# Assay remarks: chemical genetic growth profiling, strain panel (AID 1159580)
# Measurement setup: S. cerevisiae deletion strains, growth OD, locus YBR231C, strain swc5, active compounds read low
The whole screen tested about 5,500 compounds, of which about 2,000 (36%) were called active. About 18% were inconclusive and are not listed. This is one part of the list.
Recorded endpoint: normalized growth
Returns: the value as a bare number; no unit string appended.

Answered examples (3):
Molecule: CC(Cc1cccc(C(F)(F)F)c1)NCCOC(=O)c1ccccc1 (stereo not drawn)
normalized growth: 0.948

Molecule: CN(C)CCCN1c2ccccc2CCc2ccc(Cl)cc21
normalized growth: 1.01

Molecule: CC(C)CCCC(C)[C@H]1CCC2C3C(=O)C=C4C[C@@H](O)CC[C@]4(C)C3CC[C@@]21C (stereo partly drawn)
normalized growth: 1.05

**Q:** normalized growth for O=C(OOC(=O)c1ccccc1)c1ccccc1 ?
**A:** 0.978

**Q:** Query (molecule): CN[C@@H]1[C@H](O)[C@H](NC)[C@H]2O[C@@]3(O)C(=O)C[C@@H](C)O[C@H]3O[C@@H]2[C@H]1O ; field requested: normalized growth
**A:** 1.01

###

# Assay remarks: chemical genetic growth profiling, strain panel (AID 1159580);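 also: tested at 20 µM; growth read once vehicle control cultures reached saturation at 30 °C; 1 = growth at the plate median or of vehicle wells; lower values mean less growth of the strain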
# Measurement setup: S. cerevisiae deletion strains, growth OD, locus YJL134W, strain LCB3, active compounds read low
Screen size: about 5,500 compounds; about 2,000 (36%) were called active. Inconclusive results (about 18%) are left out. This is one part of the list.
The following molecules are listed with their measured normalized growth values.
I only need the number, thanks.

Some entries whose results are on file:
Molecule: CC(C)=CC1C(C(=O)O)C1(C)C (stereo not given)
Recorded endpoint: normalized growth
Experimental value: 0.99

Molecule: COc1c(C)c2c(c(C)c1Cl)Oc1c(Cl)c(OC)c(Cl)c(C)c1C(=O)O2
Recorded endpoint: normalized growth
Experimental value: 1.01

Molecule: COC(=O)c1c(OC)cc2c(c1C)Oc1c(Cl)c(OC(C)=O)c(Cl)c(C)c1C(=O)O2
Recorded endpoint: normalized growth
Experimental value: 0.998

**Q:** Tell me the measured normalized growth of COC(=O)/C(=C1\OC(=O)C(c2ccccc2)=C1O)c1ccccc1 , please.
**A:** 0.991

**Q:** Suppose we examine the molecule COC(=O)c1c(OC)cc2c(c1C)Oc1c(Cl)c(O)c(Cl)c(C)c1C(=O)O2 ; what normalized growth value has been reported?
**A:** 0.922

###

Measured normalized growth accompanies every entry in the list below.
# Assay remarks: chemical genetic growth profiling, strain panel (AID 1159580);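 also: tested at 20 µM; growth read once vehicle control cultures reached saturation at 30 °C; 1 = growth at the plate median or of vehicle wells; lower values mean less growth of the strain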
# Measurement setup: S. cerevisiae deletion strains, growth OD, locus YHR082C, strain KSP1, active compounds read low
In all, about 5,500 compounds went through this assay and about 2,000 (36%) were called active. Not shown: some 18% with an inconclusive outcome. This is one part of the list.
Write the value as a bare number.

Worked examples follow.
Smiles string: Cc1c(C)c(C)c(C(=O)c2ccc(N=Cc3cc(Cl)cc(Cl)c3O)cc2)c(C)c1C
normalized growth: 0.631

Smiles string: CSc1sc(C(=O)Sc2ccccc2)cc1S(=O)(=O)C(C)C
normalized growth: 0.988

Smiles string: N/C(Cc1cccc2ccccc12)=N/OC(=O)c1ccc(Cl)cc1
normalized growth: 0.953

Smiles string: Brc1ccc(-c2csc(-c3ccncc3)n2)cc1
normalized growth: 0.635

Smiles string: O=C(Nc1cccc(Cl)c1)O/N=C1\CCCc2occc21
normalized growth: 0.752

Smiles string: CSc1n[nH]c(-c2cc(C(C)(C)C)oc2C)c1C#N
normalized growth: 0.818

Smiles string: NC(=S)N/N=C1/CCCc2ccccc21
normalized growth: 0.935

Smiles string: COC(=O)c1sccc1NS(=O)(=O)c1cc(Cl)cc(Cl)c1
normalized growth: 1.06

Smiles string: CC(C)(C)c1cc(C(=O)NNc2cccc(Cl)c2)n(Cc2ccccc2)n1
normalized growth: 0.962

Smiles string: COC(=O)C1=C(Nc2ccccc2NS(=O)(=O)c2ccc(C(F)(F)F)cc2Cl)CSC1
normalized growth: 1.02

Attention now shifts to the item below.
**Q:** Suppose we examine the compound Cc1ccc(-c2csc(-c3ccncc3)n2)cc1 ; what normalized growth value has been reported?
**A:** 0.747

###

# Assay remarks: chemical genetic growth profiling, strain panel (AID 1159580);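 also: tested at 20 µM; growth read once vehicle control cultures reached saturation at 30 °C; 1 = growth at the plate median or of vehicle wells; lower values mean less growth of the strain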
# Measurement setup: S. cerevisiae deletion strains, growth OD, locus YDL040C, strain nat1, active compounds read low
Screen size: about 5,500 compounds; about 2,000 (36%) were called active. Roughly 18% stayed inconclusive and do not appear here. This is one part of the list.
Recorded endpoint: normalized growth

Compound: CCCN(CCC)S(=O)(=O)c1ccc(C(=O)O)cc1
normalized growth: 0.99 (inactive)
--
Compound: NC(=O)NC(=O)Cc1ccccc1
normalized growth: 0.991 (inactive)
--
Compound: CC(=O)c1cc(CC=C(C)C)c(O)c(CC=C(C)C)c1
normalized growth: 1.01 (inactive)
--
Compound: CC1=CCCC2C1(C)CCC(C)C2(C)CC/C(C)=C/C[n+]1cn(C)c2c(N)ncnc21 (stereo not given)
normalized growth: 0.991 (inactive)
--
Compound: CC(=O)Oc1ccc(O)cc1
normalized growth: 0.994 (inactive)
--
Compound: C/C1=C/CC(C)(C)/C=C/C/C(C)=C/CC1
normalized growth: 0.987 (inactive)
--
Compound: CC(C)c1ccc2c(c1)CCC1C(C)(C(N)=O)CCCC21C (stereo not given)
normalized growth: 0.976 (inactive)
--
Compound: Cc1cc(=O)oc2cc(O)c(O)cc12
normalized growth: 0.983 (inactive)
--
Compound: CC(C)=CCc1c2c(c3occ(-c4ccc(O)c(O)c4)c(=O)c3c1O)C=CC(C)(C)O2
normalized growth: 1 (inactive)
--
Compound: CC(C)NCC(O)COc1ccc(COCCOC(C)C)cc1 (stereo not given)
normalized growth: 1 (inactive)

**Q:** For the compound shown here, CC(CCC(=O)O)[C@H]1CCC2C3CC[C@@H]4C[C@H](O)CC[C@]4(C)C3C=C[C@@]21C (stereo not given in full) , give the reported normalized growth.
**A:** 1.01 (inactive)

**Q:** Reported normalized growth for CC(C)CCCC(C)C1CCC2C3CC(=O)[C@H]4C[C@@H](O)CC[C@]4(C)C3CC[C@]12C (stereo not given in full) : what is it?
**A:** 1.01 (inactive)

**Q:** Fill in: normalized growth of NCC(=O)c1ccccc1 is ___
**A:** 1 (inactive)

**Q:** Form field: reported normalized growth of O=C(NCO)c1cccnc1
**A:** 1.01 (inactive)
